Consider the following compounds; for each one, report its IC50.
target: Caspase-3 (Homo sapiens, UniProt P42574)
Sequence (P42574 29-175 limits assumed): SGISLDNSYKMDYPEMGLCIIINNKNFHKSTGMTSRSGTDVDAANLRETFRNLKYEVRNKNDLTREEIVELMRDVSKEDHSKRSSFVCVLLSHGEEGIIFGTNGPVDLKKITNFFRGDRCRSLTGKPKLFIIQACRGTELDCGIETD
Sequence (P42574 176-277 limits assumed): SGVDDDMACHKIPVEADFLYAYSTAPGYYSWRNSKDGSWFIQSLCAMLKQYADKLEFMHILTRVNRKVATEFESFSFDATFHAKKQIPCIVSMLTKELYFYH
experiment_description: Inhibition of recombinant human caspase-3 expressed in Escherichia coli using Ac-DEVD-AMC as substrate preincubated for 30 mins before substrate addition measured after 2 hrs

>>> print(df.to_string())
                                   compound  measurement
0  O=C1C(=O)N(Cc2nnnn2Cc2ccccc2)c2ccc(S(=O)(=O)N3CCC[C@H]3CF)cc21       4.4 nM
1  O=C1C(=O)N(Cc2ccc(OCCF)cc2)c2ccc(S(=O)(=O)N3CCC[C@H]3CF)cc21      19.2 nM
2  O=C1C(=O)N(Cc2cccc(I)c2)c2ccc(S(=O)(=O)N3CCC[C@H]3CF)cc21      11.6 nM

Parameters: items (list). Returns: IC50 for each item.
1. O=C1C(=O)N(Cc2ccc(I)cc2)c2ccc(S(=O)(=O)N3CCC[C@H]3CF)cc21
2. O=C1C(=O)N(Cc2ccc(Cl)cc2)c2ccc(S(=O)(=O)N3CCC[C@H]3CF)cc21

8.1 nM
7.1 nM

Batch lookup, IC50 per entry.
1. COc1ccc(CN2C(=O)C(=O)c3cc(S(=O)(=O)N4CCC[C@H]4CF)ccc32)cc1
2. O=C1C(=O)N(Cc2ccccc2)c2ccc(S(=O)(=O)N3CCC[C@H]3CF)cc21
3. COC[C@@H]1CCCN1S(=O)(=O)c1ccc2c(c1)C(=O)C(=O)N2Cc1ccc(OCCF)cc1
4. O=C1C(=O)N(Cc2ccc(OCCF)cc2)c2ccc(S(=O)(=O)N3CC4CNCC4C3)cc21 (centres undefined)

1. 13.7 nM
2. 13.9 nM
3. 8.3 nM
4. 2210 nM
